Reported pKd by item:
# subject of test: T1, c-erbB-2 ECD with a Ser-Gly-His6 C-terminal fusion (UniProt P04626 23-652)
# T1 construct: extracellular domain; Expressed from CHO cells, IMAC purified; coupled to a CM5 chip, coated on plates, or biotinylated with NHS-LC-biotin; also called c-erbB-2 extracellular domain; biotinylated c-erbB-2 ECD
# assay explanation: SPR BIAcore
As a rule, pKd stands for the negative log10 of the concentration, concentration in M.

Some solved entries appear below for comparison.
binder="C6ML3-20 (scFv) scFv: QVQLLQSGAELKKPGESLKISCKGSGYSFTSYWIAWVRQMPGKGLEYMGLIYPGDSDTKYSPSFQGQVTISVDKSVSTAYLQWSSLKPSDSAVYFCARHDVGYCSSSNCAKWPEYFQHWGQGTLVTVSSGGGGSGGGGSGGGGSQSVLTQPPSVSAAPGQKVTISCSGSSSNIGNNYVSWYQQLPGTAPKLLIYGHTNRPAGVPDRFSGSKSGTSASLAISGFRSEDEADYYCAAWEQSLWGWVFGGGTKLTVLG" readout=pKd test_result=8.52
binder="C6ML3-14 (scFv) scFv: QVQLLQSGAELKKPGESLKISCKGSGYSFTSYWIAWVRQMPGKGLEYMGLIYPGDSDTKYSPSFQGQVTISVDKSVSTAYLQWSSLKPSDSAVYFCARHDVGYCSSSNCAKWPEYFQHWGQGTLVTVSSGGGGSGGGGSGGGGSQSVLTQPPSVSAAPGQKVTISCSGSSSNIGNNYVSWYQQLPGTAPKLLIYGHTNRPAGVPDRFSGSKSGTSASLAISGFRSEDEADYYCAAWDDPLWGWVFGGGTKLTVLG" readout=pKd test_result=8.96
binder="C6ML3-28 (scFv) scFv: QVQLLQSGAELKKPGESLKISCKGSGYSFTSYWIAWVRQMPGKGLEYMGLIYPGDSDTKYSPSFQGQVTISVDKSVSTAYLQWSSLKPSDSAVYFCARHDVGYCSSSNCAKWPEYFQHWGQGTLVTVSSGGGGSGGGGSGGGGSQSVLTQPPSVSAAPGQKVTISCSGSSSNIGNNYVSWYQQLPGTAPKLLIYGHTNRPAGVPDRFSGSKSGTSASLAISGFRSEDEADYYCASWDYALSGWVFGGGTKLTVLG" readout=pKd test_result=8.60

// below: pKd requested for another binder
Noted for C6ML3-16 (scFv) scFv: QVQLLQSGAELKKPGESLKISCKGSGYSFTSYWIAWVRQMPGKGLEYMGLIYPGDSDTKYSPSFQGQVTISVDKSVSTAYLQWSSLKPSDSAVYFCARHDVGYCSSSNCAKWPEYFQHWGQGTLVTVSSGGGGSGGGGSGGGGSQSVLTQPPSVSAAPGQKVTISCSGSSSNIGNNYVSWYQQLPGTAPKLLIYGHTNRPAGVPDRFSGSKSGTSASLAISGFRSEDEADYYCASWDYYRSGWVFGGGTKLTVLG : its pKd reads 8.30
